Biological target: Hexose transporter 1 (Plasmodium falciparum) (UniProt O97467)
Test: ST_JUDE_LEISH: Cytotoxicity at 2uM final concentration against transgenic Leishmania Mexicana promastigotes LmPfHT that are glucose transport deficient and complemented with the Plasmodium falciparum hexose transporter. Activity is measured by DNA content using SYBR green in vitro
Assay type: functional
Hi there, I'd appreciate the recorded inhibition for every entry that follows.
Respond with the bare value in %.

-- ask Annotate the molecule `COc1ccc(CNCc2cccc(-c3csc(-c4nc5ccccc5[nH]4)c3)c2)cc1` with its measured inhibition.
-- reply -1.34

-- ask # return recorded inhibition for input `O=C(/C=C/c1ccc(Cl)c(Cl)c1)N1CCC(CCN2CCC(c3c[nH]c4ccccc34)CC2)CC1`
-- reply 0.94

-- ask Please give measured inhibition of the following entry: `COc1cc(Cc2cnc(N)nc2N)cc(OCCCCc2ccc([N+](=O)[O-])cc2)c1OC`
-- reply -1.89

-- ask Hello, please tell me recorded inhibition for this one: `Cc1c(C)n(C2CCCCC2)c2ncnc(OC3CCN(CC(=O)N4CCCC4)CC3)c12`
-- reply 3.02

-- ask Note inhibition for the molecule shown: `CCOc1cc(C(=O)NC2CC(C)(C)N(C)C(C)(C)C2)ccc1-c1nc2cc(Cl)c(Cl)cc2[nH]1`
-- reply 12.6

-- ask Indicate its recorded inhibition; the molecule in question is Cc1ncc([N+](=O)[O-])n1CCOC(=O)NC(Nc1ccc(Br)cc1)C(Cl)(Cl)Cl (centres undefined)
-- reply 0.15

-- ask Return inhibition for the following molecule: `COc1ccc2nccc([C@@H](O)CN3CCC(NCc4ccc(OC)c(NC=O)c4)CC3)c2c1`
-- reply 4.05

-- ask Read the entry `CCOc1cc(C=Cc2nc(O)c3ccccc3n2)cc(Cl)c1O` and write its reported inhibition.
-- reply 4.12

-- ask Supply reported inhibition belonging to this molecule: `CCOc1ccccc1C(=O)N1CCc2cc3nccc(N4CCN5CCC[C@H]5C4)c3cc21`
-- reply -0.67

Cited source: ChEMBL document CHEMBL3433997
